Reported values of Sialyltransferase activity (%) Cloned α2,3(O)ST for individual entries
Target: Rat recombinant α2,3(O)ST (Rattus norvegicus, UniProt Q11205)
Construct: purchased Calbiochem
Sequence (Q11205 1-350): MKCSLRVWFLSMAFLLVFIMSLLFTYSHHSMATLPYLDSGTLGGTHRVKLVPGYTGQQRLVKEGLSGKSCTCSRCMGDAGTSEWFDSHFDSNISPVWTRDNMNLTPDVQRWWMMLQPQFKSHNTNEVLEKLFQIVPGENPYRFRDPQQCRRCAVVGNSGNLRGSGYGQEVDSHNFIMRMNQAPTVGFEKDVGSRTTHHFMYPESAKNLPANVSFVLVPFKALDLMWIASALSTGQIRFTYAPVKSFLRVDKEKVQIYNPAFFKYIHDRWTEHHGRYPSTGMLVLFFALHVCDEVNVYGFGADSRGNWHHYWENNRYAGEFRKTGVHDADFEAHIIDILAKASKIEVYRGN
Assay: Sialyltransferase assay with cloned α2,3(O)ST
Assay type: biochemical
Details: Table I; acceptor 7.5 mM; 100% = 40560 CPM (3-O-MeGalβ1,4GlcNAcβ1,6(Galβ1,3)GalNAcα-O-Bn)
A number alone suffices; assume %.

Any idea what its Sialyltransferase activity (%) Cloned α2,3(O)ST is? The compound is CO[C@H]1O[C@H](CO[C@@H]2O[C@H](CO)[C@@H](O[C@@H]3O[C@H](CO)[C@H](O)[C@H](O)[C@H]3O)[C@H](O[C@@H]3O[C@@H](C)[C@@H](O)[C@@H](O)[C@@H]3O)[C@H]2NC(C)=O)[C@H](O)[C@H](O[C@@H]2O[C@H](CO)[C@H](O)[C@H](O)[C@H]2O)[C@H]1NC(C)=O
133.4

Any idea what its Sialyltransferase activity (%) Cloned α2,3(O)ST is? The compound is CO[C@H]1[C@H](O[C@H]2[C@H](O)[C@@H](CO)OC(O)[C@@H]2NC(C)=O)O[C@H](CO)[C@H](O)[C@@H]1O (stereo partly drawn) [2-O-MeGalβ1,3GlcNAc]
2.9

Any idea what its Sialyltransferase activity (%) Cloned α2,3(O)ST is? The compound is C=CCOC1OC(CO)C(O)C(OC2OC(CO)C(O)C(O)C2O)C1NC(C)=O (stereo not drawn) [Galβ1,3GlcNAcβ-O—Al]
42.1

Any idea what its Sialyltransferase activity (%) Cloned α2,3(O)ST is? The compound is C=CCO[C@H]1O[C@H](CO)[C@H](O)[C@H](O[C@@H]2O[C@H](CO)[C@H](O)[C@H](O)[C@H]2O)[C@H]1NC(C)=O [Galβ1,3GalNAcα-O—Al]
112.0

Any idea what its Sialyltransferase activity (%) Cloned α2,3(O)ST is? The compound is CO[C@@H]1O[C@H](CO)[C@H](O)[C@H](O[C@@H]2O[C@H](CO)[C@@H](O)[C@H](O[C@@H]3O[C@H](CO)[C@H](O)[C@H](O)[C@H]3O)[C@H]2NC(C)=O)[C@H]1O [Galβ1,3GlcNAcβ1,3Galβ-O-Me]
37.2

Any idea what its Sialyltransferase activity (%) Cloned α2,3(O)ST is? The compound is C=CCO[C@@H]1O[C@H](CO)[C@@H](O[C@@H]2O[C@H](CO)[C@H](O)[C@H](O)[C@H]2O)[C@H](O)[C@H]1NC(C)=O [Galβ1,4GlcNAcβ-O—Al]
4.7

Any idea what its Sialyltransferase activity (%) Cloned α2,3(O)ST is? The compound is CO[C@H]1[C@@H](O)[C@@H](CO)O[C@@H](O[C@H]2[C@@H](O)[C@@H](CO[C@@H]3O[C@H](CO)[C@@H](O[C@@H]4O[C@H](CO)[C@H](O)[C@H](O)[C@H]4O)[C@H](O)[C@H]3NC(C)=O)O[C@H](OCc3ccccc3)[C@@H]2NC(C)=O)[C@@H]1O
49.6
